From: the NIST ThermoML archive (doi:10.1016/j.jct.2018.03.007)

details: 303.15 K; 100 kPa; Liquid; Vibrating tube method
MEASURE NAME: mass density (kg/m3)
Please reply with the bare figure in kg/m3 and do not write the unit itself.

# input molecule: `CCCO` ; wanted: its mass density
795.92

# input molecule: C[S+](C)[O-] [dimethyl sulfoxide] ; wanted: its mass density
1090.32

# input molecule: CCn1cc[n+](C)c1.O=S(=O)([O-])O [1-ethyl-3-methylimidazolium hydrogen sulfate] ; wanted: its mass density
1362.62

# input molecule: `CCO` ; wanted: its mass density
780.98

---

conditions: 298.15 K; 100 kPa; Liquid; Vibrating tube method
MEASURE NAME: mass density (kg/m3)
Please reply with the bare figure in kg/m3 and do not write the unit itself.

Some compounds with recorded mass density:
* C[S+](C)[O-] [dimethyl sulfoxide] | 1095.33
* CCn1cc[n+](C)c1.O=S(=O)([O-])O [1-ethyl-3-methylimidazolium hydrogen sulfate] | 1365.75
* CCO [ethanol] | 785.26

Moving on to the next compound.
# input compound: CCCO [propan-1-ol] ; wanted: its mass density
799.96

---

details: 308.15 K; 100 kPa; Liquid; Vibrating tube method
Reported mass density values for a set of compounds
Please reply with the bare figure in kg/m3 and do not write the unit itself.

* CCn1cc[n+](C)c1.O=S(=O)([O-])O [1-ethyl-3-methylimidazolium hydrogen sulfate] | 1359.53
* CCO [ethanol] | 776.66
* C[S+](C)[O-] [dimethyl sulfoxide] | 1085.31

Moving on to the next compound.
# input compound: CCCO [propan-1-ol] ; wanted: its mass density
791.82

---

details: 313.15 K; 100 kPa; Liquid; Vibrating tube method
MEASURE NAME: mass density (kg/m3)
Please reply with the bare figure in kg/m3 and do not write the unit itself.

* CCO | 772.28
* CCn1cc[n+](C)c1.O=S(=O)([O-])O [1-ethyl-3-methylimidazolium hydrogen sulfate] | 1356.41
* CCCO | 787.73

Moving on to the next compound.
# input compound: C[S+](C)[O-] [dimethyl sulfoxide] ; wanted: its mass density
1080.29
